Biological target: Tyrosine-protein phosphatase non-receptor type 1 (Homo sapiens, UniProt P18031)
Sequence (P18031 whole entry): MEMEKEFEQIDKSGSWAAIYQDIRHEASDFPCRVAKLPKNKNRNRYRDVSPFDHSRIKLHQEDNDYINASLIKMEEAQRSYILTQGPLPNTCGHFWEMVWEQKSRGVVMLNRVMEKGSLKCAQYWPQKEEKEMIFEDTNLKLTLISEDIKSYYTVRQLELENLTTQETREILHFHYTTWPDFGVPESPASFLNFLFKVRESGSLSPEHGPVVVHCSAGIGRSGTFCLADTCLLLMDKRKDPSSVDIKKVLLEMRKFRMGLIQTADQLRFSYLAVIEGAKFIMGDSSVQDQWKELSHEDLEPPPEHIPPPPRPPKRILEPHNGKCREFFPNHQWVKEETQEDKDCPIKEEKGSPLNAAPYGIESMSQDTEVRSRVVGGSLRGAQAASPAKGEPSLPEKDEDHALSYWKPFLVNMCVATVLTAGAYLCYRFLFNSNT
Measured Parameter: IC50 (µM)
# unit: µM | format: bare number

[[record]]
smiles_representation = "CCCc1cc(O)cc(O)c1C(=O)O"
unit_symbol = "µM"
quantitative_readout = 1.58

[[record]]
smiles_representation = "CCCc1cc(OC(=O)c2c(O)cc(O)cc2CCC)cc(O)c1C(=O)O"
unit_symbol = "µM"
quantitative_readout = 0.51


Next compound, IC50 to be filled in.
Could you tell me which IC50 is on file for `CCC/C=C/C=C/CCc1cc(O)cc(O)c1C(=O)O` ?
4.27

----------
Target: Tyrosine-protein phosphatase non-receptor type 2 (Homo sapiens)
Sequence (P17706 whole entry): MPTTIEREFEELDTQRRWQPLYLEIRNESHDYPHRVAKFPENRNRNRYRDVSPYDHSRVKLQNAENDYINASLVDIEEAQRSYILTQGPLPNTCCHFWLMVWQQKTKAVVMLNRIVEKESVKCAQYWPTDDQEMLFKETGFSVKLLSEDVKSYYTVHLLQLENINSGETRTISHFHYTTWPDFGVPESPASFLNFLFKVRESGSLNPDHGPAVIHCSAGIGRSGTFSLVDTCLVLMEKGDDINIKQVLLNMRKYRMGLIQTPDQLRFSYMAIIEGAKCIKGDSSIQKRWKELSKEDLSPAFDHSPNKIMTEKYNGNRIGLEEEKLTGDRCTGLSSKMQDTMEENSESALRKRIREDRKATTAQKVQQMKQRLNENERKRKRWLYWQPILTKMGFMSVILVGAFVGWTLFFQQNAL
Measured Parameter: IC50

[[record]]
smiles_representation = "CCCc1cc(O)cc(O)c1C(=O)O"
result = "> 20 µM"


Next compound, IC50 to be filled in.
# input compound: `CCCc1cc(OC)cc(OC)c1C(=O)O` ; wanted: its IC50
> 20 µM

----------
target: Receptor-type tyrosine-protein phosphatase F (Homo sapiens)
Sequence (P10586 whole entry): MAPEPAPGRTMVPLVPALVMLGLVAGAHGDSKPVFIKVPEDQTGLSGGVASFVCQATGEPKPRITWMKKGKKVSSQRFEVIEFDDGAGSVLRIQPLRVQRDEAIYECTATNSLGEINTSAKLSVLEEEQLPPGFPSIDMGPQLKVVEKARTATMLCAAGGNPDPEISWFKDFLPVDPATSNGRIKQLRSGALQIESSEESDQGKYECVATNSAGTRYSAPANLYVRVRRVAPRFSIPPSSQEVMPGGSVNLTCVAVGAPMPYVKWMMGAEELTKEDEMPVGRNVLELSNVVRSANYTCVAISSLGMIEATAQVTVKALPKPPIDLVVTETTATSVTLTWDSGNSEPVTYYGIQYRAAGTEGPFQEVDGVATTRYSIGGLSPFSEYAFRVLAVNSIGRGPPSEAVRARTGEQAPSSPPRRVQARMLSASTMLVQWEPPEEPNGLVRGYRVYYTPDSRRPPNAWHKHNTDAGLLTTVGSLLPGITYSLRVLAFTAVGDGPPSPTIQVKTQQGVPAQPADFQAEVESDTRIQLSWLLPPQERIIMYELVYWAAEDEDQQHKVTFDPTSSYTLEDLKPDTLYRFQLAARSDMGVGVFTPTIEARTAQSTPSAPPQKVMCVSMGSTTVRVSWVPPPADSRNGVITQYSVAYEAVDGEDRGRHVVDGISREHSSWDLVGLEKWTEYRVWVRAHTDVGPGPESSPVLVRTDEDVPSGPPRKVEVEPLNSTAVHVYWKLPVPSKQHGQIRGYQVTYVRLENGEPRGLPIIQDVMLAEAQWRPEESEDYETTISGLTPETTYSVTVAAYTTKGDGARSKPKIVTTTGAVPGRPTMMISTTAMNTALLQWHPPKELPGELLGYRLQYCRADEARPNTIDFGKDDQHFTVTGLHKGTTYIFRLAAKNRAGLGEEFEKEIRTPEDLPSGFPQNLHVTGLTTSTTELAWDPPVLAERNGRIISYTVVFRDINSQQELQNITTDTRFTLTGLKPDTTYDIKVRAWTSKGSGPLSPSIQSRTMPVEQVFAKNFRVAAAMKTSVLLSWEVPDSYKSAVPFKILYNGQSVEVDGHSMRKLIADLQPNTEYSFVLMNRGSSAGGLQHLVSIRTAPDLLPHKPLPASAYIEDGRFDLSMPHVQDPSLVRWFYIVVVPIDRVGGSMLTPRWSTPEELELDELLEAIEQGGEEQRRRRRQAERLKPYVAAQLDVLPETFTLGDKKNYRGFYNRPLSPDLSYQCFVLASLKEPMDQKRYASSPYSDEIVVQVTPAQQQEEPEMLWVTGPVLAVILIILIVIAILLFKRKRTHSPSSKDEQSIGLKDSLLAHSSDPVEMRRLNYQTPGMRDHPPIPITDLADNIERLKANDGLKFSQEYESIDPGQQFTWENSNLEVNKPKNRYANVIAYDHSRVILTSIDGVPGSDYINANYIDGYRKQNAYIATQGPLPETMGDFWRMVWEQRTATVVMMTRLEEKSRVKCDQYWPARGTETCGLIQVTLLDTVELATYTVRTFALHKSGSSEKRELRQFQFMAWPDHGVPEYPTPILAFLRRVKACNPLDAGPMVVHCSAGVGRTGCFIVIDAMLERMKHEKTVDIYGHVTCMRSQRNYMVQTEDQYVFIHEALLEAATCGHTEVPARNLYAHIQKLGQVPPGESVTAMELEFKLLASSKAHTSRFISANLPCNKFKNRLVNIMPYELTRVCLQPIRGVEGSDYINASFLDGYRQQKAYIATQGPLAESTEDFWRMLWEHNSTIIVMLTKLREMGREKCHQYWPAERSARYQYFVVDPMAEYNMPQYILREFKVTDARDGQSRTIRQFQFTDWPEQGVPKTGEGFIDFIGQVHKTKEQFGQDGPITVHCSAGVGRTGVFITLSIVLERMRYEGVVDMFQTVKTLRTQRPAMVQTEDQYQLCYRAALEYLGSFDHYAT
pIC50: −log10 of the molar value.
Measured Parameter: pIC50

Record `CCC/C=C/C=C/CCc1cc(O)cc(O)c1C(=O)O` : what is its pIC50 with Receptor-type tyrosine-protein phosphatase F (Homo sapiens)?
< 4.70
